For each record, write down the corresponding mass density.
# study conditions: 358.15 K; 101.33 kPa; Liquid; Vibrating tube method
Value expressed in kg/m3; do not type the unit.

// mass density value for CC(CC(C)(C)C)CP(=O)([O-])CC(C)CC(C)(C)C.CCCCCCCCCCCCCC[P+](CCCCCC)(CCCCCC)CCCCCC : 850.3

// mass density value for CCCCCCCCCCCCCC[P+](CCCCCC)(CCCCCC)CCCCCC.CS(=O)(=O)[O-] [trihexyltetradecylphosphonium methanesulfonate] : 892.4

// mass density value for CCCCCCCCCCCCCC[P+](CCCCCC)(CCCCCC)CCCCCC.[Cl-] [trihexyl(tetradecyl)phosphonium chloride] : 855.1

// mass density value for CCCCCCCCCC(=O)[O-].CCCCCCCCCCCCCC[P+](CCCCCC)(CCCCCC)CCCCCC [trihexyltetradecylphosphonium decanoate] : 844.3

// mass density value for CCCCCCCCCCCCCC[P+](CCCCCC)(CCCCCC)CCCCCC.N#C[N-]C#N [tetradecyl(trihexyl)phosphonium dicyanamide] : 865.3

// mass density value for CCCCCCCCCCCCCC[P+](CCCCCC)(CCCCCC)CCCCCC.[Br-] [tetradecyltrihexylphosphonium bromide] : 918.7

// mass density value for CCCCCCCCCCCCCC[P+](CCCCCC)(CCCCCC)CCCCCC.O=S(=O)([N-]S(=O)(=O)C(F)(F)F)C(F)(F)F : 1023.1

* * *

# study conditions: 328.15 K; 101.33 kPa; Liquid; Concentric cylinders viscometry
For each record, write down the corresponding viscosity.
Value expressed in mPa·s; do not type the unit.

// viscosity value for CCCCCCCCCC(=O)[O-].CCCCCCCCCCCCCC[P+](CCCCCC)(CCCCCC)CCCCCC [trihexyltetradecylphosphonium decanoate] : 104.89

// viscosity value for CCCCCCCCCCCCCC[P+](CCCCCC)(CCCCCC)CCCCCC.[Cl-] [trihexyl(tetradecyl)phosphonium chloride] : 398.19

// viscosity value for CCCCCCCCCCCCCC[P+](CCCCCC)(CCCCCC)CCCCCC.N#C[N-]C#N [tetradecyl(trihexyl)phosphonium dicyanamide] : 97.96

// viscosity value for CCCCCCCCCCCCCC[P+](CCCCCC)(CCCCCC)CCCCCC.O=S(=O)([N-]S(=O)(=O)C(F)(F)F)C(F)(F)F : 77.55

// viscosity value for CCCCCCCCCCCCCC[P+](CCCCCC)(CCCCCC)CCCCCC.[Br-] [tetradecyltrihexylphosphonium bromide] : 428.98

// viscosity value for CCCCCCCCCCCCCC[P+](CCCCCC)(CCCCCC)CCCCCC.CS(=O)(=O)[O-] [trihexyltetradecylphosphonium methanesulfonate] : 212.37

// viscosity value for CC(CC(C)(C)C)CP(=O)([O-])CC(C)CC(C)(C)C.CCCCCCCCCCCCCC[P+](CCCCCC)(CCCCCC)CCCCCC : 290.28

* * *

# study conditions: 343.15 K; 101.33 kPa; Liquid; Concentric cylinders viscometry
I'd appreciate it if you marked entries TRUE when viscosity is lower than 60 mPa·s and FALSE when it is not.

viscosity under 60 mPa·s? Item: CCCCCCCCCCCCCC[P+](CCCCCC)(CCCCCC)CCCCCC.[Br-] [tetradecyltrihexylphosphonium bromide] FALSE

viscosity under 60 mPa·s? Item: CC(CC(C)(C)C)CP(=O)([O-])CC(C)CC(C)(C)C.CCCCCCCCCCCCCC[P+](CCCCCC)(CCCCCC)CCCCCC FALSE

viscosity under 60 mPa·s? Item: CCCCCCCCCCCCCC[P+](CCCCCC)(CCCCCC)CCCCCC.N#C[N-]C#N [tetradecyl(trihexyl)phosphonium dicyanamide] TRUE

viscosity under 60 mPa·s? Item: CCCCCCCCCCCCCC[P+](CCCCCC)(CCCCCC)CCCCCC.CS(=O)(=O)[O-] [trihexyltetradecylphosphonium methanesulfonate] FALSE

viscosity under 60 mPa·s? Item: CCCCCCCCCCCCCC[P+](CCCCCC)(CCCCCC)CCCCCC.[Cl-] [trihexyl(tetradecyl)phosphonium chloride] FALSE

viscosity under 60 mPa·s? Item: CCCCCCCCCCCCCC[P+](CCCCCC)(CCCCCC)CCCCCC.O=S(=O)([N-]S(=O)(=O)C(F)(F)F)C(F)(F)F TRUE
